# Lookup of reported IC50 keyed by entry
- study.target: human CSNK1D tagged with nanoluciferase (Homo sapiens (Human))
- Sequence (P48730 whole entry): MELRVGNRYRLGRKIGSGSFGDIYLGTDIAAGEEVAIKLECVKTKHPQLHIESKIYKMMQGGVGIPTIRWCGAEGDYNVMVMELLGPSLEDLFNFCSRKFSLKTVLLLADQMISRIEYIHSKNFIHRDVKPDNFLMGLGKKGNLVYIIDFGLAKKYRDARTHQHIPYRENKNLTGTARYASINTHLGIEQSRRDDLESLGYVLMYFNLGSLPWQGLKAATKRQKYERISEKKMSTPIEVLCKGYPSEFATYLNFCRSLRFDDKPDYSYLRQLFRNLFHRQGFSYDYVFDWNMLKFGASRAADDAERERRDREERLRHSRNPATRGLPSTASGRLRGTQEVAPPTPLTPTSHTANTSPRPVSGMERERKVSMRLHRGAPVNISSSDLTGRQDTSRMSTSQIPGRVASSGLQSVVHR
- method: Whole Cell nBRET CSNK1D Binding Assay
- measurement.context: living CHO cells stably expressing human CSNK1D-nanoluciferase; NanoBret tracer 130 nM; 2 hours 37° C.; read-out: CSNK1D BRET IC50
Hi! Could you send only the number? It should be in µM, unit omitted.

# cpd.smiles, reported.value
measured = [
    ("COc1nc(-c2nn(C)cc2-c2cc(C)nc3[nH]ncc23)ccc1F", 5),
    ("Cn1cc(-c2ccnc3[nH]ccc23)c(-c2cncc(F)c2)n1", 0.356),
    ("Cn1cc(-c2ccnc3[nH]cc(C#N)c23)c(-c2ccc(F)cn2)n1", 0.144),
]

// Cn1cc(-c2ccnc3c2CCCN3)c(-c2ccc(F)cn2)n1 : IC50 value = 4.23

// Cc1c[nH]c2nccc(-c3cn(C)nc3-c3ccc(F)cn3)c12 : IC50 value = 0.059

// Cc1csc2c(-c3cn(C)nc3-c3ccc(F)cn3)ccnc12 : IC50 value = 5.17
